Target: T1, PUF4 RNA-binding domain (Saccharomyces cerevisiae, UniProt P25339 537-888)
T1 sequence: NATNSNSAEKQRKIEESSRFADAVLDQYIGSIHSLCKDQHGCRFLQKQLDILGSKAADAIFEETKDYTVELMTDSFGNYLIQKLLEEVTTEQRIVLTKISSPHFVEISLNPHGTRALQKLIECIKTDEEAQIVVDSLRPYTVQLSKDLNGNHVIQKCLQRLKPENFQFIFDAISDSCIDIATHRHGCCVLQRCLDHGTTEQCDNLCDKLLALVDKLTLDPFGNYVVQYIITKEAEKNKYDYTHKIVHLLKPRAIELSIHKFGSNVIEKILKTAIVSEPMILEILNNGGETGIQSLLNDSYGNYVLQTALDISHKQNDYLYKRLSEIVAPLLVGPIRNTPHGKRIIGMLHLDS
Test: Mg; RNA-MaP; 20 mM Na-HEPES pH 7.4, 30 mM KOAc, 0.75 mM MgCl2, 0.1% Tween-20, 5% glycerol, 0.1 mg/mL BSA, 2 mM DTT; 25 C; 0.0125-409.6 nM protein
Conditions: tags: N-His6-TEV cleaved; C-SNAP kept, Cy3B-labelled; label: tethered on chip by stalled RNA polymerase
Exercise: state measured log10 Kd for each of the binders provided.
Log10 applied to Kd; unit prior to transform: µM.

List log10 Kd for every entry below, keeping the order given.
1. Ic_S4_P4E.1_K4.1_C4.1_H4.1_A4.1_[T5A]_[A6T]_F4.1_[T8C]_T4.1 (ssRNA) RNA: UUUGACAACUGAUCGUUCUUUCUUGUAAUUCAUUCUUUCUCGAUCAGUUGUCUUU
2. UCUCUUCCUGUAUAUUACUUCUCUU (ssRNA) [Id_ii_S1_P4E.2_K4.1_C4.2_[T-1C]_H4.1_A4.1_F4.1_T4.2_[G10C]]
3. UCUCUUUGUAUCUCUCUCUU (ssRNA) [Ic_S1_P3E.1_K3.1_C3.1_H3.1_A3.1_[A6C]_F3.1_[A8C]_T3.1]
4. UCUCUUGGUAUAUAUAACUCUCUU (ssRNA) [Id_ii_S1_P3E.3_K3.2_C3.2_[C-2G]_[T-1G]_H3.2_A3.1_F3.1_T3.2_[T9A]_[A10C]]
5. Ia_S2_P5E.1_K5.1_C5.1_H5.1_[A4T]_A5.1_F5.1_T5.1 (ssRNA) RNA: UUUGAUUAAUAUGAUAUCGUUCUUUCUUGUUUUAUUAUUCUUUCUCGAUAUCAUAUUAAUCUUU
6. Ie_S4_P5E.1_K5.1_C5.1_H5.1_[+3CT]_A5.1_F5.1_T5.1 (ssRNA) RNA: UUUGACAACUGAUCGUUCUUUCUUGUCUAUUAUUAUUCUUUCUCGAUCAGUUGUCUUU

Given back:
1: -0.69; 2: -3.04; 3: -1.01; 4: -0.11; 5: -1.94; 6: -1.96
